// values below are reported log10 IC50
Target: CK2A2 (Homo sapiens, UniProt P19784)
Construct: purchased Eurofins
Sequence (P19784 whole entry): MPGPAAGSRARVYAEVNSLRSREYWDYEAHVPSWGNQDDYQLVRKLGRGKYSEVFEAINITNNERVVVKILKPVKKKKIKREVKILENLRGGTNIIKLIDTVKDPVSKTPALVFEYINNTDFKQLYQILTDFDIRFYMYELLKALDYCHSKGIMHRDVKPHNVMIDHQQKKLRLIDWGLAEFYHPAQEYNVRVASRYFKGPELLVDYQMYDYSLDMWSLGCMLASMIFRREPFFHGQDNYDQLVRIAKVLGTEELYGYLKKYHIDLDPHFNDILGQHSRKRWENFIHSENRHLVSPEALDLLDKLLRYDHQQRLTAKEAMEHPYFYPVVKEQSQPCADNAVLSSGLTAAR
Assay: Radiometric kinase assay (Eurofins), CK2A2
Format: biochemical
Conditions: Table 2; read-out: CK2A2 RAD IC50
Note the log scale: values are log10 of IC50 expressed in µM.

These solved cases illustrate the format of a correct answer.
INSERT INTO results (compound, experimentalvalue) VALUES
  ('O=c1cc(-c2ccc(O)c(C(F)(F)F)c2)oc2c(Br)cc(Br)cc12 [JKT.460A]', -0.89),
  ('Cc1cc(-c2cc(=O)c3cc(Br)cc(Br)c3o2)ccc1O [JKT.475A]', 0.31),
  ('COc1cc(-c2cc(=O)c3cc(Br)cc(Br)c3o2)ncc1O [JKT.77A]', -1.72),
  ('O=c1cc(-c2cc(Cl)c(O)c(Cl)c2)oc2c(Br)cc(Br)cc12 [JKT.465A]', -1.35),
  ('O=c1cc(-c2ccc(O)c(Br)c2)oc2c(Br)cc(Br)cc12 [JKT.464A]', -2.52);

Asked: Form field - read-out: log10 IC50; system: CK2A2 (Homo sapiens, UniProt P19784); submitted item: O=c1cc(-c2cc(F)c(O)c(F)c2)oc2c(Br)cc(Br)cc12 [JKT.461B]
Given back: -1.49

Reference source for all entries: patent US20260199350A1
